The reported measurements were obtained from ChEMBL document CHEMBL1255487.

- Protocol Notes: Oral bioavailability in Wistar rat at 25 mg/kg
- Assay type: ADME, organism-based
- Protocol Conditions: in vivo

Test Smiles	bioavailability [%]
COc1ccc(OC)c(CNc2ccc3nc(N)nc(N)c3c2Cl)c1	63

---

- Protocol Notes: Tmax in Wistar rat at 25 mg/kg, po
- Format: ADME, organism-based
- Design: dose 25 mg/kg, route oral
- Protocol Conditions: in vivo

Test Smiles	Tmax (h)
COc1ccc(OC)c(CNc2ccc3nc(N)nc(N)c3c2Cl)c1	4

---

- Protocol Notes: Half life in CD-1 mouse at 25 mg/kg, po
- Type: ADME, organism-based
- Parameters: dose 25 mg/kg, route oral
- Protocol Conditions: in vivo
Attribute Measured: half-life (min)

Test Smiles	Unit Abbrev	Obs Value
COc1ccc(OC)c(CNc2ccc3nc(N)nc(N)c3c2Cl)c1	min	290

---

- Protocol Notes: AUC in Wistar rat at 25 mg/kg, po
- Type: ADME, organism-based
- Set-up: dose 25 mg/kg, route oral
- Protocol Conditions: plasma

Test Smiles	Unit Abbrev	AUC
COc1ccc(OC)c(CNc2ccc3nc(N)nc(N)c3c2Cl)c1	µM·h	67.3

---

- Protocol Notes: Cmax in Wistar rat at 25 mg/kg, po
- Assay type: ADME, organism-based
- Set-up: dose 25 mg/kg, route oral
- Protocol Conditions: in vivo
Attribute Measured: Cmax

Test Smiles	Obs Value
COc1ccc(OC)c(CNc2ccc3nc(N)nc(N)c3c2Cl)c1	2800 nM

---

- Protocol Notes: Half life in CD-1 mouse at 5 mg/kg, iv
- Assay type: ADME, organism-based
- Parameters: dose 5 mg/kg, route intravenous
- Protocol Conditions: in vivo
Attribute Measured: half-life (min)

Test Smiles	Unit Abbrev	Obs Value
COc1ccc(OC)c(CNc2ccc3nc(N)nc(N)c3c2Cl)c1	min	48

---

- Protocol Notes: Clearance in Wistar rat at 5 mg/kg, iv
- Assay type: ADME, organism-based
- Design: dose 5 mg/kg, route intravenous
- Protocol Conditions: in vivo
Attribute Measured: clearance (L/h/kg)

Test Smiles	Unit Abbrev	Obs Value
COc1ccc(OC)c(CNc2ccc3nc(N)nc(N)c3c2Cl)c1	L/h/kg	1.02

---

- System: Plasmodium falciparum
- Protocol Notes: Antimalarial activity against pyrimethamine-resistant Plasmodium falciparum clinical isolate harboring S108N, N51I mutation in DHFR assessed as decrease in parasitaemia
- Type: functional, organism-based
In this section we review reported IC50 values for a set of compounds.

Test Smiles	IC50, nM
CCc1nc(N)nc(N)c1-c1ccc(Cl)cc1	371
COc1ccc(OC)c(CNc2ccc3nc(N)nc(N)c3c2Cl)c1	4.48

---

- Tested on: Plasmodium falciparum
- Protocol Notes: Antimalarial activity against pyrimethamine-resistant Plasmodium falciparum V1/S harboring S108N, N51I, C59R, I164L mutation in DHFR assessed as decrease in parasitaemia
- Assay type: functional, organism-based
- Protocol Conditions: V1S
pIC50: −log10 of the molar value.

Test Smiles	pIC50
COc1ccc(OC)c(CNc2ccc3nc(N)nc(N)c3c2Cl)c1	8.12
CCc1nc(N)nc(N)c1-c1ccc(Cl)cc1	5.43

---

- Protocol Notes: AUC (0 to 24 hrs) in Wistar rat at 50 mg/kg, po
- Assay type: ADME, organism-based
- Parameters: time < 24 hr, dose 50 mg/kg, route oral
- Protocol Conditions: plasma

Test Smiles	AUC(0-t) at 24 h, ng·h/mL
COc1ccc(OC)c(CNc2ccc3nc(N)nc(N)c3c2Cl)c1	27600
